Each entry below lists one item and its recorded activity coefficient value.
Test: activity coefficient (dimensionless); of the first substance listed, at infinite dilution; xn = mol fraction of the nth substance listed
Settings: 343.15 K; 101 kPa; Liquid; GC; x1 = 0

{"MOLECULE": "CCCCCC [hexane] + CCCCCCCCCCCCCCCCCCCCO", "activity coefficient": 0.124}
{"MOLECULE": "CCCCCl [1-chlorobutane] + CCCCCCCCCCCCCCCCCCCCO", "activity coefficient": 0.0954}
{"MOLECULE": "CCO [ethanol] + CCCCCCCCCCCCCCCCCCCCO", "activity coefficient": 0.117}
{"MOLECULE": "CCCCC [pentane] + CCCCCCCCCCCCCCCCCCO", "activity coefficient": 0.0259}
{"MOLECULE": "ClC(Cl)(Cl)Cl [tetrachloromethane] + CCCCCCCCCCCCCCCCCCO", "activity coefficient": 0.0283}
{"MOLECULE": "CCOC(C)=O [ethyl acetate] + CCCCCCCCCCCCCCCCCCCCO", "activity coefficient": 0.11}
{"MOLECULE": "C1CCOC1 [tetrahydrofuran] + CCCCCCCCCCCCCCCCCCCCO", "activity coefficient": 0.0543}
{"MOLECULE": "C1CCCCC1 [cyclohexane] + CCCCCCCCCCCCCCCCCCCCO", "activity coefficient": 0.102}
{"MOLECULE": "C=CCCCCC [1-heptene] + CCCCCCCCCCCCCCCCCCCCO", "activity coefficient": 0.118}
{"MOLECULE": "ClCCl [dichloromethane] + CCCCCCCCCCCCCCCCCCCCO", "activity coefficient": 0.0642}

====

Test: activity coefficient (dimensionless); of the first substance listed, at infinite dilution; xn = mol fraction of the nth substance listed
Settings: 353.15 K; 101 kPa; Liquid; GC; x1 = 0
// reported activity coefficient for each item listed
METRIC NAME: activity coefficient

{"COMPOUND": "CCCO [propan-1-ol] + CCCCCCCCCCCCCCCCCCCCO", "METRIC NAME": "activity coefficient", "NUMERIC RESULT": 0.159}
{"COMPOUND": "ClC(Cl)(Cl)Cl [tetrachloromethane] + CCCCCCCCCCCCCCCCCCO", "METRIC NAME": "activity coefficient", "NUMERIC RESULT": 0.0278}
{"COMPOUND": "CCOCC [diethyl ether] + CCCCCCCCCCCCCCCCCCO", "METRIC NAME": "activity coefficient", "NUMERIC RESULT": 0.019}
{"COMPOUND": "C=CCCC [1-pentene] + CCCCCCCCCCCCCCCCCCCCO", "METRIC NAME": "activity coefficient", "NUMERIC RESULT": 0.06}
{"COMPOUND": "Cc1ccccc1 [toluene] + CCCCCCCCCCCCCCCCCCCCO", "METRIC NAME": "activity coefficient", "NUMERIC RESULT": 0.373}
{"COMPOUND": "CC(C)=O [acetone] + CCCCCCCCCCCCCCCCCCO", "METRIC NAME": "activity coefficient", "NUMERIC RESULT": 0.0166}
{"COMPOUND": "CC#N [acetonitrile] + CCCCCCCCCCCCCCCCCCCCO", "METRIC NAME": "activity coefficient", "NUMERIC RESULT": 0.197}
{"COMPOUND": "CC(C)=O [acetone] + CCCCCCCCCCCCCCCCCCCCO", "METRIC NAME": "activity coefficient", "NUMERIC RESULT": 0.0602}
{"COMPOUND": "CCCCCC [hexane] + CCCCCCCCCCCCCCCCCCCCO", "METRIC NAME": "activity coefficient", "NUMERIC RESULT": 0.115}
{"COMPOUND": "CCCCCl [1-chlorobutane] + CCCCCCCCCCCCCCCCCCO", "METRIC NAME": "activity coefficient", "NUMERIC RESULT": 0.03}
{"COMPOUND": "CCCCl [1-chloropropane] + CCCCCCCCCCCCCCCCCCCCO", "METRIC NAME": "activity coefficient", "NUMERIC RESULT": 0.0777}
{"COMPOUND": "CCCCOC(C)=O [butyl ethanoate] + CCCCCCCCCCCCCCCCCCCCO", "METRIC NAME": "activity coefficient", "NUMERIC RESULT": 0.115}
{"COMPOUND": "CCCCCC [hexane] + CCCCCCCCCCCCCCCCCCO", "METRIC NAME": "activity coefficient", "NUMERIC RESULT": 0.0315}
{"COMPOUND": "CO [methanol] + CCCCCCCCCCCCCCCCCCO", "METRIC NAME": "activity coefficient", "NUMERIC RESULT": 0.0306}
{"COMPOUND": "Cc1ccccc1 [toluene] + CCCCCCCCCCCCCCCCCCO", "METRIC NAME": "activity coefficient", "NUMERIC RESULT": 0.0318}
{"COMPOUND": "CCOCC [diethyl ether] + CCCCCCCCCCCCCCCCCCCCO", "METRIC NAME": "activity coefficient", "NUMERIC RESULT": 0.0572}
{"COMPOUND": "CCCCCl [1-chlorobutane] + CCCCCCCCCCCCCCCCCCCCO", "METRIC NAME": "activity coefficient", "NUMERIC RESULT": 0.0886}
{"COMPOUND": "CCCCCCCC [octane] + CCCCCCCCCCCCCCCCCCO", "METRIC NAME": "activity coefficient", "NUMERIC RESULT": 0.0461}
{"COMPOUND": "ClC(Cl)(Cl)Cl [tetrachloromethane] + CCCCCCCCCCCCCCCCCCCCO", "METRIC NAME": "activity coefficient", "NUMERIC RESULT": 0.0714}
{"COMPOUND": "ClCCl [dichloromethane] + CCCCCCCCCCCCCCCCCCCCO", "METRIC NAME": "activity coefficient", "NUMERIC RESULT": 0.0435}
{"COMPOUND": "CCOC(C)=O [ethyl acetate] + CCCCCCCCCCCCCCCCCCCCO", "METRIC NAME": "activity coefficient", "NUMERIC RESULT": 0.0888}
{"COMPOUND": "C1CCCCC1 [cyclohexane] + CCCCCCCCCCCCCCCCCCO", "METRIC NAME": "activity coefficient", "NUMERIC RESULT": 0.0274}
{"COMPOUND": "C1CCOC1 [tetrahydrofuran] + CCCCCCCCCCCCCCCCCCCCO", "METRIC NAME": "activity coefficient", "NUMERIC RESULT": 0.0471}
{"COMPOUND": "ClC(Cl)Cl [trichloromethane] + CCCCCCCCCCCCCCCCCCCCO", "METRIC NAME": "activity coefficient", "NUMERIC RESULT": 0.0604}
{"COMPOUND": "C1CCCCC1 [cyclohexane] + CCCCCCCCCCCCCCCCCCCCO", "METRIC NAME": "activity coefficient", "NUMERIC RESULT": 0.0918}
{"COMPOUND": "C1CCOC1 [tetrahydrofuran] + CCCCCCCCCCCCCCCCCCO", "METRIC NAME": "activity coefficient", "NUMERIC RESULT": 0.0156}
{"COMPOUND": "ClC(Cl)Cl [trichloromethane] + CCCCCCCCCCCCCCCCCCO", "METRIC NAME": "activity coefficient", "NUMERIC RESULT": 0.0202}
{"COMPOUND": "CCCCC [pentane] + CCCCCCCCCCCCCCCCCCCCO", "METRIC NAME": "activity coefficient", "NUMERIC RESULT": 0.0564}
{"COMPOUND": "CO [methanol] + CCCCCCCCCCCCCCCCCCCCO", "METRIC NAME": "activity coefficient", "NUMERIC RESULT": 0.0574}
